Listing: Fold increase h-GABA-A α2β2γ1 oocyte @ 30-fold Ki of selected compounds
- tested_target: α2β2γ1 GABAA receptor subtype (Homo sapiens (Human), UniProt P47869+Q8N1C3)
- assay_summary: Two-electrode voltage clamp electrophysiology in Xenopus oocytes expressing GABAA receptors (modulation of GABA EC20 current)
- Format: cell-based
- test_parameters: Xenopus oocytes expressing α2β2γ1; compound at approx. 30-fold its Ki α2β2γ1; GABA EC20 current
Returns: the value as a bare number; no unit string appended.

Worked examples, 2 compounds total:
{"columns": ["chemical_structure", "tested_target", "meas_value"],
 "data": [
  ["Cc1nc2n(n1)-c1ccc(C(F)(F)F)c(Cl)c1C(c1ncccc1F)=N[C@H]2C", "α2β2γ1 GABAA receptor subtype (Homo sapiens (Human), UniProt P47869+Q8N1C3)", 2.54],
  ["C[C@@H]1N=C(c2ncccc2F)c2c(ccc(C(F)(F)F)c2Cl)-n2cc(C(=O)NCC3(O)CC3)nc21", "α2β2γ1 GABAA receptor subtype (Homo sapiens (Human), UniProt P47869+Q8N1C3)", 2.77]
]}

Given `OCc1cn2c(n1)CN=C(c1c(F)cccc1F)c1c-2ccc(Br)c1Cl` , report its Fold increase h-GABA-A α2β2γ1 oocyte @ 30-fold Ki on α2β2γ1 GABAA receptor subtype (Homo sapiens (Human), UniProt P47869+Q8N1C3). 2.05

Given `C[C@@H]1N=C(c2ncccc2F)c2c(ccc(C(F)(F)F)c2Cl)-n2nc(C(=O)NCCO)nc21` , report its Fold increase h-GABA-A α2β2γ1 oocyte @ 30-fold Ki on α2β2γ1 GABAA receptor subtype (Homo sapiens (Human), UniProt P47869+Q8N1C3). 3.04
